molecular target: EGFR mutant L858R Ba/F3 cells (Homo sapiens, UniProt P00533, L858R, cells depend on it); assay: Ba/F3 cell proliferation (Cell Titer Glo), EGFR L858R; format: cell-based, murine; settings: 72 hours exposure, read-out: L858R BaF3 (μM), inhibitory activity against EGFR mutants
Sequence (P00533 whole entry L858R): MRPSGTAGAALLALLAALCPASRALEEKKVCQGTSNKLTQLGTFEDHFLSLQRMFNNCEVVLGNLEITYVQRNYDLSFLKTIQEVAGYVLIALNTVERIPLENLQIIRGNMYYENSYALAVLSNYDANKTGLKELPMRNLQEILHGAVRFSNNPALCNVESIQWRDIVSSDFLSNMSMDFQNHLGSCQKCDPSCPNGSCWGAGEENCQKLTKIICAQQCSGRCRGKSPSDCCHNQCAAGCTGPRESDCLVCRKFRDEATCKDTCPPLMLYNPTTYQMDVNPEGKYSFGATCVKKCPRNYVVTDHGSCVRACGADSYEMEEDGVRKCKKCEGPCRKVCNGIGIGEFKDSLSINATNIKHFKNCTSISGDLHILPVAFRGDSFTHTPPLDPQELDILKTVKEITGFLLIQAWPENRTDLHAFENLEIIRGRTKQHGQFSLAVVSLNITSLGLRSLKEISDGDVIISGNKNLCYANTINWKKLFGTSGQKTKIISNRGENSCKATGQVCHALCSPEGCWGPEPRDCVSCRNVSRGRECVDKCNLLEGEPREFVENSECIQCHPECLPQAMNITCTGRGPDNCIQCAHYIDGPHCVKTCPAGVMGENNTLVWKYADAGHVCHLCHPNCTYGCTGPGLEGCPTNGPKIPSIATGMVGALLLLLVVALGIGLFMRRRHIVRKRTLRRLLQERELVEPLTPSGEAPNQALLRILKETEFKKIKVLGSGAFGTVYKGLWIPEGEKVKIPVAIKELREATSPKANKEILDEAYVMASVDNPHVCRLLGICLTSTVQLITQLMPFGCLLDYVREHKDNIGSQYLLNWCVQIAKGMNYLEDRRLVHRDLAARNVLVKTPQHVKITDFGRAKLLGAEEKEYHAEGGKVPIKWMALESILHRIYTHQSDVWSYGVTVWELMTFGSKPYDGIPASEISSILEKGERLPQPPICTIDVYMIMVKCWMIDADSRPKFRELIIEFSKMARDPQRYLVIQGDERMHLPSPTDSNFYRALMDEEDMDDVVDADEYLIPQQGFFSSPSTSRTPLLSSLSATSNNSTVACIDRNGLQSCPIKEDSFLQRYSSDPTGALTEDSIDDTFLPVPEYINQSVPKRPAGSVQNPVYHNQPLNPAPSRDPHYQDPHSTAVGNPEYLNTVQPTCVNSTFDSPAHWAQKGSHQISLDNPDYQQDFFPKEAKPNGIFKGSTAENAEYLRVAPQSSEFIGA
Property: GI50

Entry C=CC(=O)N1CCN(c2cc3cnc(Nc4ccc(N5CCN(C)CC5)cc4)nc3n(C)c2=O)c2cccc(OC)c21 — recorded GI50 = ≤ 0.25 µM

Entry C=CC(=O)N1CCN(c2cc3cnc(Nc4ccc(OCCN(C)C)c(F)c4)nc3n(C)c2=O)c2cccc(C)c21 — recorded GI50 = ≤ 0.25 µM

Entry C=CC(=O)N1CCN(c2cc3cnc(Nc4cc5n(c4)CCN(C)C5=O)nc3n(C)c2=O)c2cccc(C)c21 — recorded GI50 = ≤ 0.25 µM

Entry C=C(F)C(=O)N1CCC(c2cc3cnc(Nc4cnn(CCO)c4)nc3n(C)c2=O)c2ccccc21 (centres unmarked) — recorded GI50 = ≤ 0.25 µM

Entry C=CC(=O)N1CCN(c2cc3cnc(NC4CCC4)nc3n(-c3ccc(N(C)CCN(C)C)cc3)c2=O)c2cccc(C)c21 — recorded GI50 = ≤ 0.25 µM

Entry C=CC(=O)N1CCN(c2cc3cnc(N)nc3n(-c3ccc(N4CCOCC4)cc3)c2=O)c2cccc(C)c21 — recorded GI50 = ≤ 0.25 µM

Entry C=CC(=O)N1CCN(c2cc3cnc(NC4CC4)nc3n(C)c2=O)c2cccc(C)c21 — recorded GI50 = 0.5 to 2.5 µM

Entry C=CC(=O)N1CCN(c2cc3cnc(Nc4cccc(N5CCS(=O)(=O)CC5)c4)nc3n(C)c2=O)c2cccc(C)c21 — recorded GI50 = ≤ 0.25 µM

Entry C=CC(=O)N1CCN(c2cc3cnc(Nc4ccc(OCCN(C)C)cc4)nc3n(CCO)c2=O)c2cccc(C)c21 — recorded GI50 = ≤ 0.25 µM

Entry C=CC(=O)N1CCN(c2cc3cnc(Nc4ccc(OCCN(C)C)cc4)nc3n([C@H]3C[C@](C)(O)C3)c2=O)c2cccc(C)c21 — recorded GI50 = ≤ 0.25 µM

Entry C=C(F)C(=O)NC1CCCN(c2cc3cnc(Nc4cnn(CCO)c4)nc3n(C)c2=O)C1 (centres unmarked) — recorded GI50 = ≥ 2.5 µM

Entry C=CC(=O)N1CCN(c2cc3cnc(Nc4ccc(OCCN(C)C)cc4)nc3n([C@H]3C[C@H](O)C3)c2=O)c2cccc(C)c21 — recorded GI50 = ≤ 0.25 µM

Entry C#CC(=O)Nc1ccccc1Oc1cc2cnc(Nc3ccc(N4CCN(C)CC4)cc3)nc2n(C)c1=O — recorded GI50 = 0.25 to 0.5 µM

Entry C=CC(=O)N1CCN(c2cc3cnc(NC)nc3n(-c3ccc(OCCN(C)C)cc3)c2=O)c2cccc(C)c21 — recorded GI50 = ≤ 0.25 µM

###

Provide the reported GI50 of each item.
Target: EGFR mutant L858R Ba/F3 cells (Homo sapiens, UniProt P00533, L858R, cells depend on it)
Assay: Ba/F3 cell proliferation (Cell Titer Glo), EGFR L858R
Format: cell-based, murine
Settings: 72 hours exposure, read-out: L858R BaF3 (μM), inhibitory activity against EGFR mutants
Experimental: The EGFR mutant L858R Ba/F3 cells have been previously described (Zhou, W., et al. Nature 462, 2009, 1070-1074). […] Growth and inhibition of growth was assessed by the Cell Titer Glo assay (Promega, Madison, WI) and was performed according to the manufacturer's instructions. The Cell Titer Glo assay is a luminescence-based method used to determine the number of viable cells based on quantitation of the ATP present, which is directly proportional to the amount of metabolically active cells present. […]

Entry C=CC(=O)N1CCN(c2cc3cnc(Nc4cc5n(c4)CCN(C)C5)nc3n(C)c2=O)c2cccc(C)c21 — recorded GI50 = ≥ 2.5 µM

Entry C=CC(=O)N1CCN(c2cc3cnc(Nc4ccc(OCCN(C)C)cc4)nc3n(C3COC3)c2=O)c2cccc(C)c21 — recorded GI50 = 0.25 to 0.5 µM

Entry C=CC(=O)N1CCN(c2cc3cnc(Nc4cnn(C5CCN(C)CC5)c4)nc3n(C)c2=O)c2cccc(C)c21 — recorded GI50 = ≤ 0.25 µM

Entry C=CC(=O)Nc1ccccc1Oc1cc2cnc(Nc3ccc(N4CCN(C)CC4)cc3OC)nc2n(C)c1=O — recorded GI50 = 0.25 to 0.5 µM

###

Provide the reported GI50 of each item.
molecular target: EGFR L858R/C775S Ba/F3 cells (Homo sapiens, UniProt P00533, C775S/L858R, cells depend on it); experiment: Ba/F3 cell proliferation (Cell Titer Glo), EGFR L858R/C775S; assay type: cell-based, murine; conditions: 72 hours exposure, read-out: L858R/C775S (μM), inhibitory activity against EGFR mutants
Sequence (P00533 whole entry C775S/L858R): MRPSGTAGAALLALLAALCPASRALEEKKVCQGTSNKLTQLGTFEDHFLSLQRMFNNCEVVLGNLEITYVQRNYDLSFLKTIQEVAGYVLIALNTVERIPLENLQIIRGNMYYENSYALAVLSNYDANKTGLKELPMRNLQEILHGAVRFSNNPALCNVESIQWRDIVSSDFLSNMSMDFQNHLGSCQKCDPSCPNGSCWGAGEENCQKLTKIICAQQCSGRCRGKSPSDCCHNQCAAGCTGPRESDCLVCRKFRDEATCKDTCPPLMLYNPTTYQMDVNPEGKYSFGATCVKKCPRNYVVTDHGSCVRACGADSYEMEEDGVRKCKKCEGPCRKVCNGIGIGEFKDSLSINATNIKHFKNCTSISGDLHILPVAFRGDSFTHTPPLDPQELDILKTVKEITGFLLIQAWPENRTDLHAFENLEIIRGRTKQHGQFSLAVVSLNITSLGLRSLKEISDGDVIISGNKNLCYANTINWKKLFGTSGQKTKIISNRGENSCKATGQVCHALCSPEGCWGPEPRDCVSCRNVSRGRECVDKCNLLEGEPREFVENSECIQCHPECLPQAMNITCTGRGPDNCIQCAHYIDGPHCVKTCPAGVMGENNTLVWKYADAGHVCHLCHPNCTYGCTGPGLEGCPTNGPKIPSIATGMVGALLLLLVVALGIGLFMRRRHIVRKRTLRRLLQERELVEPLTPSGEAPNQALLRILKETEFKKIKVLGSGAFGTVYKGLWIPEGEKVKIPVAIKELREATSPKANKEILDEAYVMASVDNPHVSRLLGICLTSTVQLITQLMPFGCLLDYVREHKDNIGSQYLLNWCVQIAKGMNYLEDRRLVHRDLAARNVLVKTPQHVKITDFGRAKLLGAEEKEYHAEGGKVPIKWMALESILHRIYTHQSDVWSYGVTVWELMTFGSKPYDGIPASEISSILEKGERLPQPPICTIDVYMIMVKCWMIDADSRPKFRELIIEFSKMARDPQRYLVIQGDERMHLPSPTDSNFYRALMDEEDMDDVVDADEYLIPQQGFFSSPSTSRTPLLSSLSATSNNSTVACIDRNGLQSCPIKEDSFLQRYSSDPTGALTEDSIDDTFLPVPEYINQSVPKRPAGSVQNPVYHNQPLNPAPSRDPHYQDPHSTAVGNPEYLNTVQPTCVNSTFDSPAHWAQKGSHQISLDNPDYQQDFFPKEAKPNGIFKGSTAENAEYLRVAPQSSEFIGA

Entry C#CC(=O)Nc1ccccc1Oc1cc2cnc(Nc3ccc(N4CCN(C)CC4)cc3)nc2n(C)c1=O [Compound 006] — recorded GI50 = ≥ 2.5 µM

Entry C=CC(=O)N1CCN(c2cc3cnc(Nc4ccc(N5CCN(C)CC5)cc4)nc3n(C)c2=O)c2ccccc21 [Compound 010] — recorded GI50 = ≥ 2.5 µM

Entry C=CC(=O)Nc1ccccc1Cc1cc2cnc(Nc3ccc(N4CCN(C)CC4)cc3)nc2n(C)c1=O [Compound 001] — recorded GI50 = 0.5 to 2.5 µM

Entry C=CC(=O)Nc1ccccc1Oc1cc2cnc(Nc3ccc(N4CCN(C)CC4)cc3)nc2n(-c2cccc(NC(C)=O)c2)c1=O [Compound 008] — recorded GI50 = ≥ 2.5 µM

Entry C=CC(=O)Nc1ccccc1Oc1cc2cnc(Nc3ccc(N4CCN(C)CC4)cc3)nc2n(C)c1=O [Compound 002] — recorded GI50 = ≥ 2.5 µM

Entry C=CC(=O)Nc1ccccc1Oc1cc2cnc(Nc3ccc(N4CCN(C)CC4)cc3OC)nc2n(C)c1=O [Compound 004] — recorded GI50 = ≥ 2.5 µM

###

Provide the reported GI50 of each item.
target: EGFR mutant L858R Ba/F3 cells (Homo sapiens, UniProt P00533, L858R, cells depend on it); test: Ba/F3 cell proliferation (Cell Titer Glo), EGFR L858R; assay type: cell-based, murine; settings: 72 hours exposure, read-out: L858R BaF3 (μM), inhibitory activity against EGFR mutants

So the reported GI50 for C=CC(=O)N1CCN(c2cc3cnc(N)nc3n(-c3ccc(N(C)CCN(C)C)cc3)c2=O)c2cccc(C)c21 , on EGFR mutant L858R Ba/F3 cells (Homo sapiens, UniProt P00533, L858R, cells depend on it), turned out to be 0.25 to 0.5 µM

So the reported GI50 for C=CC(=O)N1CCN(c2cc3cnc(N)nc3n([C@H]3CC[C@H](OC)CC3)c2=O)c2cccc(C)c21 , on EGFR mutant L858R Ba/F3 cells (Homo sapiens, UniProt P00533, L858R, cells depend on it), turned out to be ≤ 0.25 µM

So the reported GI50 for C=CC(=O)N1CCN(c2cc3cnc(N)nc3n(-c3ccc(CN4CCN(C)CC4)cc3)c2=O)c2cccc(C)c21 , on EGFR mutant L858R Ba/F3 cells (Homo sapiens, UniProt P00533, L858R, cells depend on it), turned out to be 0.25 to 0.5 µM

So the reported GI50 for C=CC(=O)N1CCN(c2cc3cnc(Nc4ccc(N5CCN(C)CC5)cc4)nc3n(C)c2=O)c2cccc(N)c21 , on EGFR mutant L858R Ba/F3 cells (Homo sapiens, UniProt P00533, L858R, cells depend on it), turned out to be ≤ 0.25 µM

Just for reference, patent US20250221998A1 is where these values come from.
